Experiment: Cmax in Sprague-Dawley rat at 3 mg/kg, po by LC-MS/MS analysis
Type: ADME, organism-based
Design: dose 3 mg/kg, route oral
Settings: in vivo
Quantity: Cmax (ng/mL)

Substance smiles	Numeric result
O=C(c1ccc(F)c(F)c1Nc1ccc(I)cc1F)N1CC(O)([C@@H]2CCCCN2)C1	193

###

Experiment: Drug uptake in tumor of mouse xenografted with human COLO205 cells at 3 mg/kg after 2 hrs
Assay type: ADME, organism-based, Neoplasm, COLO 205
Set-up: dose 3 mg/kg
Conditions: read-out: Drug uptake

Substance smiles	concentration at 2 h (nM)
O=C(c1ccc(F)c(F)c1Nc1ccc(I)cc1F)N1CC(O)([C@@H]2CCCCN2)C1	1560

This collection of values is drawn from ChEMBL document CHEMBL3526097.
